# Experimental Target: Neutrophil elastase (Homo sapiens, UniProt P08246); note: in other assays of this panel Not Active means under 50% inhibition at 10 µM;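 note: inhibition of neutrophil elastase enzyme activity, measured with a p-nitroanilide-linked peptide substrate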
# Sequence (P08246 whole entry): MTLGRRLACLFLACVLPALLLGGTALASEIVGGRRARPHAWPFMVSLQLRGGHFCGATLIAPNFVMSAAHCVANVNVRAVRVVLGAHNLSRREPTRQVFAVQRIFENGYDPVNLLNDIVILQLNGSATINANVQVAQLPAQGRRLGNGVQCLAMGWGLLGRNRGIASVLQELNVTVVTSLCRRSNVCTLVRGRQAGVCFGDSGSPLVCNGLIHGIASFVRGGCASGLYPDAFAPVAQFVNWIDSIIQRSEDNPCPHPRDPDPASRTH
# Type: tissue-based
Metric Name: IC50

A selection of reference data follows.
O.O.O.O.O.O.[Cl-].[Cl-].[Sr+2] [STRONTIUM CHLORIDE HEXAHYDRATE]
Not Active
COc1ccc(C(=O)N2CCCC2=O)cc1
Not Active
CN[C@H]1CC[C@@H](c2ccc(Cl)c(Cl)c2)c2ccccc21
Not Active
Oc1cccc(O)c1O
Not Active
C=CCc1ccc(O)c(OC)c1
Not Active
C#CC1(O)CC[C@H]2[C@@H]3CCC4=CC(=O)CC[C@@H]4[C@H]3CC[C@@]21CC (some centres not stated)
Not Active

Give IC50 for each listed item.
1. O=C(O)c1cccnc1Nc1cccc(C(F)(F)F)c1
2. CO[C@H]1/C=C/O[C@@]2(C)Oc3c(C)c(O)c4c(O)c(c(/C=N/N5CCN(C6CCCC6)CC5)c(O)c4c3C2=O)NC(=O)/C(C)=C\C=C\[C@H](C)[C@H](O)[C@@H](C)[C@@H](O)[C@@H](C)[C@H](OC(C)=O)[C@@H]1C
3. COc1cc2nc(N3CCN(C(=O)C4CCCO4)CC3)nc(N)c2cc1OC (configuration not stated)
4. CO[C@@H]1[C@@H](OC)[C@H](C)[C@@](O)(CC(=O)O)O[C@H]1[C@H](C)[C@H]1O[C@@]2(CC[C@@](C)([C@H]3CC[C@@](C)([C@@H]4O[C@@H]([C@H]5O[C@](C)(O)[C@H](C)C[C@@H]5C)C[C@@H]4O[C@@H]4C[C@H](OC)[C@@H](OC)[C@H](C)O4)O3)O2)C[C@H](O)[C@H]1C
5. C[C@@H]1O[C@@H](O[C@@H]2C=C3CC[C@@H]4[C@H](CC[C@]5(C)[C@@H](c6ccc(=O)oc6)CC[C@]45O)[C@@]3(C)CC2)[C@H](O)[C@H](O)[C@H]1O
6. CC(C)(C)NC(=O)[C@H]1CC[C@H]2[C@@H]3CC[C@H]4NC(=O)C=C[C@]4(C)[C@H]3CC[C@]12C [FINASTERIDE]

## Result
Not Active
Not Active
Not Active
Not Active
Not Active
Not Active

Please state IC50 for every compound in the list that follows.
1. COc1cc2nc(N3CCN(C(=O)c4ccco4)CC3)nc(N)c2cc1OC
2. C[C@]12C=CC(=O)C=C1CC[C@@H]1[C@@H]2[C@@H](O)C[C@@]2(C)[C@H]1CC[C@]2(O)C(=O)CO
3. CCCCOc1cc(CC2CNC(=O)N2)ccc1OC (configuration not stated)

## Result
["Not Active", "Not Active", "Not Active"]

I have 3 compounds here; please give me IC50 for each one.
1. Cn1c(=O)c2[nH]cnc2n(C)c1=O.Cn1c(=O)c2[nH]cnc2n(C)c1=O.NCCN
2. CNCCC(Oc1ccc(C(F)(F)F)cc1)c1ccccc1 (configuration not stated)
3. NC1CCN(c2nc3c(cc2F)c(=O)c(C(=O)O)cn3-c2ccc(F)cc2F)C1 (configuration not stated)

## Result
1: Not Active; 2: Not Active; 3: Not Active
